Values from patent US20250074920A1

# System: JAK3(JH1domain-catalytic)
# assay details: KINOMEscan kinase binding assay
# conditions: JAK3(JH1domain-catalytic); at 1 μM
Provide the recorded % Ctrl for the entries that follow.

### Prompt // map Cc1cc2c([nH]1)/C=C1\C(=O)Nc3c(Cl)cc(cc31)-c1cn(C)nc1COC[C@@H](C)N(C)C2=O [Cpd. 5] to recorded % Ctrl (system: JAK3(JH1domain-catalytic))
### Response 79%

### Prompt // map Cc1cc2c([nH]1)/C=C1\C(=O)Nc3c(Cl)cc(cc31)-c1cn(C)nc1COC[C@@H](C)NC2=O [Cpd. 3] to recorded % Ctrl (system: JAK3(JH1domain-catalytic))
### Response 70%

### Prompt // map Cc1cc2c([nH]1)/C=C1\C(=O)Nc3ccc(cc31)-c1c(nn(C)c1C)COCCN(C)C2=O [Cpd. 2] to recorded % Ctrl (system: JAK3(JH1domain-catalytic))
### Response 49%

### Prompt // map C[C@@H]1COCc2nn(C)cc2-c2cc(Cl)c3c(c2)/C(=C/c2[nH]ccc2C(=O)N1)C(=O)N3 [Cpd. 4] to recorded % Ctrl (system: JAK3(JH1domain-catalytic))
### Response 12%

### Prompt // map Cc1cc2c([nH]1)/C=C1\C(=O)Nc3ccc(cc31)-c1c(nn(C)c1C)OCCCN(C)C2=O [Cpd. 1] to recorded % Ctrl (system: JAK3(JH1domain-catalytic))
### Response 81%

* * *

# tested on: JAK3(JH1domain-catalytic)
# assay details: KINOMEscan kinase binding assay
# conditions: read-out: JAK3(JH1 domain-catalytic) Kd
endpoint: Kd

### Prompt Data request, read-out Kd, for Cc1cc2c([nH]1)/C=C1\C(=O)Nc3c(F)cc(cc31)-c1cn(C)nc1COC[C@@H](C)N(C)C2=O
### Response > 10 µM

### Prompt Data request, read-out Kd, for Cc1cc2c([nH]1)/C=C1\C(=O)Nc3c(Cl)cc(cc31)-c1cn(C)nc1COC[C@@H](C)NC2=O
### Response 7.7 µM

### Prompt Data request, read-out Kd, for Cc1cc2c([nH]1)/C=C1\C(=O)Nc3ccc(cc31)-c1c(nn(C)c1C)OCCCN(C)C2=O
### Response > 10 µM

### Prompt Data request, read-out Kd, for Cc1cc2c([nH]1)/C=C1\C(=O)Nc3c(Cl)cc(cc31)-c1cn(C)nc1COC[C@@H](C)N(C)C2=O
### Response > 10 µM

### Prompt Data request, read-out Kd, for Cc1cc2c([nH]1)/C=C1\C(=O)Nc3c(C#N)cc(cc31)-c1cn(C)nc1COC[C@@H](C)N(C)C2=O
### Response > 1 µM

### Prompt Data request, read-out Kd, for Cc1cc2c([nH]1)/C=C1\C(=O)Nc3c(F)cc(cc31)-c1c(nn(C)c1C)COC[C@@H](C)N(C)C2=O
### Response 5.2 µM

* * *

Provide the recorded % Ctrl for the entries that follow.
# Test system: MET(M1250T)
# assay details: KINOMEscan kinase binding assay
# conditions: at 1 μM
Reply numerically in %, unit not repeated.

### Prompt Data request, read-out % Ctrl, for C[C@@H]1COCc2nn(C)cc2-c2cc(Cl)c3c(c2)/C(=C/c2[nH]ccc2C(=O)N1)C(=O)N3
### Response 100

### Prompt Data request, read-out % Ctrl, for Cc1cc2c([nH]1)/C=C1\C(=O)Nc3ccc(cc31)-c1c(nn(C)c1C)OCCCN(C)C2=O
### Response 83

### Prompt Data request, read-out % Ctrl, for Cc1cc2c([nH]1)/C=C1\C(=O)Nc3c(Cl)cc(cc31)-c1cn(C)nc1COC[C@@H](C)NC2=O
### Response 100

### Prompt Data request, read-out % Ctrl, for Cc1cc2c([nH]1)/C=C1\C(=O)Nc3c(Cl)cc(cc31)-c1cn(C)nc1COC[C@@H](C)N(C)C2=O
### Response 100

### Prompt Data request, read-out % Ctrl, for Cc1cc2c([nH]1)/C=C1\C(=O)Nc3ccc(cc31)-c1c(nn(C)c1C)COCCN(C)C2=O
### Response 98

* * *

# Test system: ABL1(H396P)-phosphorylated
# assay details: KINOMEscan kinase binding assay
# conditions: at 1 μM
endpoint: % Ctrl (%)
Reply numerically in %, unit not repeated.

### Prompt // map Cc1cc2c([nH]1)/C=C1\C(=O)Nc3c(Cl)cc(cc31)-c1cn(C)nc1COC[C@@H](C)NC2=O [Cpd. 3] to recorded % Ctrl (system: ABL1(H396P)-phosphorylated)
### Response 100

### Prompt // map Cc1cc2c([nH]1)/C=C1\C(=O)Nc3ccc(cc31)-c1c(nn(C)c1C)COCCN(C)C2=O [Cpd. 2] to recorded % Ctrl (system: ABL1(H396P)-phosphorylated)
### Response 64

### Prompt // map Cc1cc2c([nH]1)/C=C1\C(=O)Nc3c(Cl)cc(cc31)-c1cn(C)nc1COC[C@@H](C)N(C)C2=O [Cpd. 5] to recorded % Ctrl (system: ABL1(H396P)-phosphorylated)
### Response 80

### Prompt // map Cc1cc2c([nH]1)/C=C1\C(=O)Nc3ccc(cc31)-c1c(nn(C)c1C)OCCCN(C)C2=O [Cpd. 1] to recorded % Ctrl (system: ABL1(H396P)-phosphorylated)
### Response 96

### Prompt // map C[C@@H]1COCc2nn(C)cc2-c2cc(Cl)c3c(c2)/C(=C/c2[nH]ccc2C(=O)N1)C(=O)N3 [Cpd. 4] to recorded % Ctrl (system: ABL1(H396P)-phosphorylated)
### Response 96

* * *

Provide the recorded % Ctrl for the entries that follow.
# System: FLT4
# assay details: KINOMEscan kinase binding assay
# conditions: at 1 μM
Reply numerically in %, unit not repeated.

### Prompt // map Cc1cc2c([nH]1)/C=C1\C(=O)Nc3ccc(cc31)-c1c(nn(C)c1C)OCCCN(C)C2=O to recorded % Ctrl (system: FLT4)
### Response 94

### Prompt // map Cc1cc2c([nH]1)/C=C1\C(=O)Nc3c(Cl)cc(cc31)-c1cn(C)nc1COC[C@@H](C)N(C)C2=O to recorded % Ctrl (system: FLT4)
### Response 98

### Prompt // map C[C@@H]1COCc2nn(C)cc2-c2cc(Cl)c3c(c2)/C(=C/c2[nH]ccc2C(=O)N1)C(=O)N3 to recorded % Ctrl (system: FLT4)
### Response 100

### Prompt // map Cc1cc2c([nH]1)/C=C1\C(=O)Nc3ccc(cc31)-c1c(nn(C)c1C)COCCN(C)C2=O to recorded % Ctrl (system: FLT4)
### Response 19

### Prompt // map Cc1cc2c([nH]1)/C=C1\C(=O)Nc3c(Cl)cc(cc31)-c1cn(C)nc1COC[C@@H](C)NC2=O to recorded % Ctrl (system: FLT4)
### Response 100

* * *

# tested on: JAK2(JH1domain-catalytic)
# assay details: KINOMEscan kinase binding assay
# conditions: read-out: JAK2(JH1 domain-catalytic) Kd
Provide the recorded Kd for the entries that follow.

### Prompt Data request, read-out Kd, for Cc1cc2c([nH]1)/C=C1\C(=O)Nc3ccc(cc31)-c1c(nn(C)c1C)COCCN(C)C2=O
### Response 2.3 µM

### Prompt Data request, read-out Kd, for Cc1cc2c([nH]1)/C=C1\C(=O)Nc3ccc(cc31)-c1c(nn(C)c1C)OCCCN(C)C2=O
### Response > 10 µM

### Prompt Data request, read-out Kd, for Cc1cc2c([nH]1)/C=C1\C(=O)Nc3c(Cl)cc(cc31)-c1cn(C)nc1COC[C@@H](C)NC2=O
### Response > 10 µM

### Prompt Data request, read-out Kd, for Cc1cc2c([nH]1)/C=C1\C(=O)Nc3c(Cl)cc(cc31)-c1cn(C)nc1COCCN(C)C2=O
### Response > 10 µM

### Prompt Data request, read-out Kd, for Cc1cc2c([nH]1)/C=C1\C(=O)Nc3c(Cl)cc(cc31)-c1cn(C)nc1COC[C@H](C)N(C)C2=O
### Response > 10 µM

### Prompt Data request, read-out Kd, for Cc1cc2c([nH]1)/C=C1\C(=O)Nc3c(Cl)cc(cc31)-c1[nH]c(C)nc1COC[C@@H](C)N(C)C2=O
### Response > 10 µM

### Prompt Data request, read-out Kd, for Cc1cc2c([nH]1)/C=C1\C(=O)Nc3c(C#N)cc(cc31)-c1cn(C)nc1COC[C@@H](C)N(C)C2=O
### Response > 1 µM

### Prompt Data request, read-out Kd, for Cc1cc2c([nH]1)/C=C1\C(=O)Nc3c(F)cc(cc31)-c1cn(C)nc1COC[C@@H](C)N(C)C2=O
### Response > 10 µM

### Prompt Data request, read-out Kd, for Cc1cc2c([nH]1)/C=C1\C(=O)Nc3c(F)cc(cc31)-c1c(nn(C)c1C)COC[C@@H](C)N(C)C2=O
### Response > 10 µM

### Prompt Data request, read-out Kd, for Cc1cc2c([nH]1)/C=C1\C(=O)Nc3c(Cl)cc(cc31)-c1c(nn(C)c1C)COC[C@@H](C)N(C)C2=O
### Response > 10 µM

### Prompt Data request, read-out Kd, for Cc1nc2c([nH]1)/C=C1\C(=O)Nc3c(Cl)cc(cc31)-c1cn(C)nc1COC[C@@H](C)N(C)C2=O
### Response > 10 µM

### Prompt Data request, read-out Kd, for Cc1cc2c([nH]1)/C=C1\C(=O)Nc3c(Cl)cc(cc31)-c1cn(C)nc1COC[C@@H](C)N(C)C2=O
### Response > 10 µM

### Prompt Data request, read-out Kd, for C[C@@H]1COCc2nn(C)cc2-c2cc(Cl)c3c(c2)/C(=C/c2[nH]ccc2C(=O)N1)C(=O)N3
### Response 1.8 µM
